target: MsrA efflux pump (His-MsrA) (Staphylococcus epidermidis)
Sequence (P23212 whole entry): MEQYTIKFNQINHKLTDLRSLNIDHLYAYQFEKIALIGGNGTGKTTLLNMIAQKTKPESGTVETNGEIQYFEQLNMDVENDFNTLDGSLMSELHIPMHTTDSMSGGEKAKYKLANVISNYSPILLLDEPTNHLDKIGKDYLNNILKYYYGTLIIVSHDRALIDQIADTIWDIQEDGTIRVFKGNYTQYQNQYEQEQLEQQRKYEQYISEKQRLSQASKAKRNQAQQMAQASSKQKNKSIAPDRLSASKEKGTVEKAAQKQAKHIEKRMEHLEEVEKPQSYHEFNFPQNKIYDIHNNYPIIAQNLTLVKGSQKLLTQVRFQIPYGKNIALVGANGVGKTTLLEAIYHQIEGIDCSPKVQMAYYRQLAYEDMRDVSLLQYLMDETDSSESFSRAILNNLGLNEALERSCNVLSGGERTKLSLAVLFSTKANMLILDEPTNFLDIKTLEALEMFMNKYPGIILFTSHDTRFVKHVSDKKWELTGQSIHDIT
Endpoint Name: Kd (µM)
Reply with just the number (in µM).

The molecule listed as O=c1cc(-c2ccc(O)c(O)c2)oc2cc(O)cc(O)c12 [luteolin] shows Kd equal to 64.6
